Please provide measured pIC50 for the entries that follow.
# Tested on: A-431
# Test: cells
# Assay type: functional, cell-based
# Test Conditions: Homo sapiens, A-431, 72 h
# Description: Antiproliferative activity against human A431 cells after 72 hrs by MTT assay
Note on units: pIC50 is unitless, being -log10 of a concentration expressed in mol/L.

Fill blank: measured pIC50 of the molecule COc1cc2ncnc(Nc3ccc(C#N)cc3F)c2cc1OCCCN1CCNCCNCCNCC1 is ____.
5.20

Item under review: COc1cc2ncnc(Nc3cccc(Br)c3)c2cc1OCCCN1CCNCCNCCNCC1 . Reported pIC50?
5.98

Requested read-out: pIC50. Entry: C#Cc1cccc(Nc2ncnc3cc(OC)c(OCCCN4CCNCCNCCNCC4)cc23)c1
5.95

Recorded pIC50 for CCc1cc(Br)ccc1Nc1ncnc2cc(OC)c(OCCCN3CCNCCNCC3)cc12 , please?
4.73

Reported pIC50, molecule COc1cc2ncnc(Nc3ccc(Br)cc3F)c2cc1OCCCN1CCNCCNCCNCC1 : ____
5.74

Which pIC50 reading was recorded for the molecule COc1cc2ncnc(Nc3cccc(Cl)c3)c2cc1OCCCN1CCNCCNCCNCC1 ?
5.85

Field request: pIC50 | item: COc1cc2ncnc(Nc3cccc(F)c3)c2cc1OCCCN1CCNCCNCC1
5.10

Request the reported pIC50 associated with COc1cc2ncnc(Nc3cccc(F)c3)c2cc1OCCCN1CCNCCNCCNCC1
5.73

Quick one: pIC50 of COc1cccc(Nc2ncnc3cc(OC)c(OCCCN4CCNCCNCC4)cc23)c1 ?
5.07

I have this molecule here, COc1cc2ncnc(Nc3ccc(Cl)c(C(F)(F)F)c3)c2cc1OCCCN1CCNCCNCC1 , and I need its recorded pIC50.
5.53

###

I'd appreciate it if you could supply pIC50 values for the items below.
// pIC50 is dimensionless: -log10 of concentration (M)

Kindly state the measured pIC50 obtained for COc1cc2ncnc(Nc3ccc(OCc4cccc(F)c4)c(Cl)c3)c2cc1OCCCN1CCNCCNCCNCC1 with Epidermal growth factor receptor (Homo sapiens, UniProt P00533).
Sequence (P00533 whole entry): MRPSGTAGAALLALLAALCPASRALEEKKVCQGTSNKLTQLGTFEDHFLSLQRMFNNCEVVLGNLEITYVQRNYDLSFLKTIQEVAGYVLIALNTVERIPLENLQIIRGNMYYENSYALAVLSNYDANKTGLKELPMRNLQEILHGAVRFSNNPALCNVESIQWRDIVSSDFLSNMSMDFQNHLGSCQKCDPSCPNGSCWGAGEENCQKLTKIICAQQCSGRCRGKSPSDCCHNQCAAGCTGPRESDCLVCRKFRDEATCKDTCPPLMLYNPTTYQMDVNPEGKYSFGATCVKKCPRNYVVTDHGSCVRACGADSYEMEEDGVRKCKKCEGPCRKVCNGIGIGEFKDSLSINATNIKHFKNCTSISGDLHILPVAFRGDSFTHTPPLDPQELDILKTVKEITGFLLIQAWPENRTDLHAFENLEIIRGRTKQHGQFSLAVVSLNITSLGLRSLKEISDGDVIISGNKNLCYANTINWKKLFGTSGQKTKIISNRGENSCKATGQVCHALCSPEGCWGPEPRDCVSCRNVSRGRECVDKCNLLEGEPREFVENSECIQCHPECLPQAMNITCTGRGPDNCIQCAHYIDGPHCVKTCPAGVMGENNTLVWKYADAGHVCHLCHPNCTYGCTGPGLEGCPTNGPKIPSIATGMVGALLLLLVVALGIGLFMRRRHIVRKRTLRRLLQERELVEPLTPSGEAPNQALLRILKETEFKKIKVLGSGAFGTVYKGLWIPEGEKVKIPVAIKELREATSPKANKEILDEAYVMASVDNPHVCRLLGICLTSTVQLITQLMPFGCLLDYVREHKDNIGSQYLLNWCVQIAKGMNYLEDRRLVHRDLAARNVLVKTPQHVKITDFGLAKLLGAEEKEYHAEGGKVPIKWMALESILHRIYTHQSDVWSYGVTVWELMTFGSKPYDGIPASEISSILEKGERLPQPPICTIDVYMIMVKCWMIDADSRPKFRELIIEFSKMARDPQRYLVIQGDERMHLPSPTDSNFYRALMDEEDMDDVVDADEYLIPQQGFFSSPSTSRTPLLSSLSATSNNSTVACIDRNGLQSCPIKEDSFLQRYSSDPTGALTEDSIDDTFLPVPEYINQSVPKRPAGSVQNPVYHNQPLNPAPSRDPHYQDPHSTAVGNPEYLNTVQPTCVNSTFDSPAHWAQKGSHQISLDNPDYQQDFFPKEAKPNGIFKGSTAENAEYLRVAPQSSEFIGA
8.85

Write down the reported pIC50 of COc1cc2ncnc(Nc3ccc(OCc4cccc(F)c4)c(Cl)c3)c2cc1OCCCN1CCNCCNCC1 , test system: Epidermal growth factor receptor (Homo sapiens, UniProt P00533).
9.52

Provide the documented pIC50 with Epidermal growth factor receptor (Homo sapiens, UniProt P00533) as the system for COc1cc2ncnc(Nc3ccc(Br)cc3F)c2cc1OCCCN1CCNCCNCC1
7.55

Param readout = pIC50; param system = Epidermal growth factor receptor (Homo sapiens, UniProt P00533); param query = COc1cc2ncnc(Nc3ccc(F)c(Cl)c3)c2cc1OCCCN1CCNCCNCC1 ; response: value
8.08

###

# Tested on: A-431;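 further: antiproliferative activity measured with an MTT assay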
# Test: cells
# Format: functional, cell-based
# Test Conditions: Homo sapiens, A-431, 72 h
// returns NO unless IC50 is strictly below 2 µM, in which case YES

Please state whether IC50 is below 2 µM for COc1cc2ncnc(Nc3ccc(F)c(Cl)c3)c2cc1OCCCN1CCNCCNCCNCC1
YES

Given COc1cc2ncnc(Nc3cccc(I)c3)c2cc1OCCCN1CCNCCNCC1 , is recorded IC50 strictly lower than 2 µM?
NO

Strictly below 2 µM: is that where IC50 of COc1cc2ncnc(Nc3ccc(Br)cc3F)c2cc1OCCCN1CCNCCNCC1 sits?
YES

Does the reported IC50 of CCc1cc(Br)ccc1Nc1ncnc2cc(OC)c(OCCCN3CCNCCNCCNCC3)cc12 stay below 2 µM?
NO

Could you please tell me whether IC50 recorded for COc1cc2ncnc(Nc3ccc(F)c(Br)c3)c2cc1OCCCN1CCNCCNCCNCC1 is less than 2 µM?
YES

Record COc1cc2ncnc(Nc3ccc(Cl)cc3Cl)c2cc1OCCCN1CCNCCNCCNCC1 : is its IC50 strictly below 2 µM?
NO

API: query returns whether the compound falls strictly under 2 µM in IC50. Query: COc1cc2ncnc(Nc3ccc(Cl)c(C(F)(F)F)c3)c2cc1OCCCN1CCNCCNCCNCC1
YES

Lab note: IC50 threshold 2 µM. Does this compound come in strictly under it? COc1cc2ncnc(Nc3ccc(OCc4cccc(F)c4)c(Cl)c3)c2cc1OCCCN1CCNCCNCCNCC1
YES

Given COc1cc2ncnc(Nc3ccc(Cl)cc3Cl)c2cc1OCCCN1CCNCCNCC1 , is recorded IC50 strictly lower than 2 µM?
NO

Determine whether this compound shows IC50 lower than 2 µM (ties excluded): COc1cc2ncnc(Nc3cccc(C(F)(F)F)c3)c2cc1OCCCN1CCNCCNCC1
YES
